Reference for the values: ChEMBL document CHEMBL4052629

Hi there, I'd appreciate the recorded viability at 72 h, 50 µM for every entry that follows.
Assay: Induction of apoptosis in human LO2 cells assessed as viable cells at 50 uM after 72 hrs by Annexin V-FITC/7-AAD or propidium iodide staining-based flow cytometric analysis (reference value: 94.26%)
Assay type: cell-based, L02
Settings: read-out: Activity
Answer with a number only, understood to be in %.

Which viability at 72 h, 50 µM value belongs to COc1ccc(-c2cc(=O)c3c(O)c(OC)c(O[C@@H]4O[C@H](C(=O)NCCOc5no[n+]([O-])c5S(=O)(=O)c5ccccc5)[C@@H](O)[C@H](O)[C@H]4O)cc3o2)cc1 ? 45

// query viability at 72 h, 50 µM value for entry O=C(NCCCOc1no[n+]([O-])c1S(=O)(=O)c1ccccc1)[C@H]1O[C@@H](Oc2cc3oc(-c4ccc(OCc5ccccc5)cc4)cc(=O)c3c(O)c2OCc2ccccc2)[C@H](O)[C@@H](O)[C@@H]1O 48.8

====

System: L02
Experiment: Drug metabolism in human LO2 cells assessed as NO release at 100 uM after 1 hr by Griess assay
Assay type: ADME, cell-based
Conditions: l02, 1 h
Would you mind telling me the reported Drug metabolism of each entry?

Would you mind telling me what Drug metabolism value was observed for O=C(NCCOc1no[n+]([O-])c1S(=O)(=O)c1ccccc1)[C@H]1O[C@@H](Oc2cc3oc(-c4ccc(OCc5ccccc5)cc4)cc(=O)c3c(O)c2OCc2ccccc2)[C@H](O)[C@@H](O)[C@@H]1O ? < 15.5 µM

Bench note: what Drug metabolism did COc1ccc(-c2cc(=O)c3c(O)c(OC)c(O[C@@H]4O[C@H](C(=O)N5CCN(CCOc6no[n+]([O-])c6S(=O)(=O)c6ccccc6)CC5)[C@@H](O)[C@H](O)[C@H]4O)cc3o2)cc1 show? < 15.5 µM

Which Drug metabolism value is on record for CC(CNC(=O)[C@H]1O[C@@H](Oc2cc3oc(-c4ccc(OCc5ccccc5)cc4)cc(=O)c3c(O)c2OCc2ccccc2)[C@H](O)[C@@H](O)[C@@H]1O)Oc1no[n+]([O-])c1S(=O)(=O)c1ccccc1 (stereo not given in full) ? < 15.5 µM

What Drug metabolism value was documented for this compound, COc1ccc(-c2cc(=O)c3c(O)c(OC)c(O[C@@H]4O[C@H](C(=O)NCC(C)Oc5no[n+]([O-])c5S(=O)(=O)c5ccccc5)[C@@H](O)[C@H](O)[C@H]4O)cc3o2)cc1 (stereo not given in full) ? < 15.5 µM

Name the reported Drug metabolism value associated with the compound O=C([C@H]1O[C@@H](Oc2cc3oc(-c4ccc(OCc5ccccc5)cc4)cc(=O)c3c(O)c2OCc2ccccc2)[C@H](O)[C@@H](O)[C@@H]1O)N1CCN(CCOc2no[n+]([O-])c2S(=O)(=O)c2ccccc2)CC1 < 15.5 µM

====

Experiment: Drug metabolism in pH 7.4 phosphate buffer solution assessed as NO release at 10^-5 M after 0.25 hrs in presence of L-cysteine by Griess assay
Type: physicochemical
Settings: pH 7.4, 0.25 h, 10 µM
OUTCOME MEASURE: Drug metabolism (µmol/L)
Quick reminder: number only, in µmol/L, skip the unit.

Given the compound O=C(OCCCO[N+](=O)[O-])[C@H]1O[C@@H](Oc2cc3oc(-c4ccc(OCc5ccccc5)cc4)cc(=O)c3c(O)c2OCc2ccccc2)[C@H](O)[C@@H](O)[C@@H]1O , what is its reported Drug metabolism? 4.14

Given the compound COc1ccc(-c2cc(=O)c3c(O)c(OC)c(O[C@@H]4O[C@H](C(=O)NCCOc5no[n+]([O-])c5S(=O)(=O)c5ccccc5)[C@@H](O)[C@H](O)[C@H]4O)cc3o2)cc1 , what is its reported Drug metabolism? 26.93

Quick one: Drug metabolism of O=C(OCCO[N+](=O)[O-])[C@H]1O[C@@H](Oc2cc3oc(-c4ccc(OCc5ccccc5)cc4)cc(=O)c3c(O)c2OCc2ccccc2)[C@H](O)[C@@H](O)[C@@H]1O ? 3.96

Reported Drug metabolism for COc1ccc(-c2cc(=O)c3c(O)c(OC)c(O[C@@H]4O[C@H](C(=O)OCCO[N+](=O)[O-])[C@@H](O)[C@H](O)[C@H]4O)cc3o2)cc1 : what is it? 1.07

Requested field: Drug metabolism. Item: COc1ccc(-c2cc(=O)c3c(O)c(OC)c(O[C@@H]4O[C@H](C(=O)NCCCOc5no[n+]([O-])c5S(=O)(=O)c5ccccc5)[C@@H](O)[C@H](O)[C@H]4O)cc3o2)cc1 11.74

====

Experiment: Drug metabolism in pH 7.4 phosphate buffer solution assessed as NO release at 10^-5 M after 2 hrs in presence of L-cysteine by Griess assay
Format: physicochemical
Conditions: pH 7.4, 2 h, 10 µM
Consider the following compounds; for each one, report its Drug metabolism.
Give a bare numeral; the unit µmol/L is implied.

Param item = COc1ccc(-c2cc(=O)c3c(O)c(OC)c(O[C@@H]4O[C@H](C(=O)NCCCOc5no[n+]([O-])c5S(=O)(=O)c5ccccc5)[C@@H](O)[C@H](O)[C@H]4O)cc3o2)cc1 ; retrieve measured Drug metabolism. 30.55

Which Drug metabolism is reported for this compound? O=C(NCCCOc1no[n+]([O-])c1S(=O)(=O)c1ccccc1)[C@H]1O[C@@H](Oc2cc3oc(-c4ccc(OCc5ccccc5)cc4)cc(=O)c3c(O)c2OCc2ccccc2)[C@H](O)[C@@H](O)[C@@H]1O 16.26

What measured Drug metabolism goes with O=C(NCCOc1no[n+]([O-])c1S(=O)(=O)c1ccccc1)[C@H]1O[C@@H](Oc2cc3oc(-c4ccc(OCc5ccccc5)cc4)cc(=O)c3c(O)c2OCc2ccccc2)[C@H](O)[C@@H](O)[C@@H]1O ? 26.39

Drug metabolism lookup needed for COc1ccc(-c2cc(=O)c3c(O)c(OC)c(O[C@@H]4O[C@H](C(=O)OCCCO[N+](=O)[O-])[C@@H](O)[C@H](O)[C@H]4O)cc3o2)cc1 , thanks. 1.43

I'd like to know its Drug metabolism. The compound in question is COc1ccc(-c2cc(=O)c3c(O)c(OC)c(O[C@@H]4O[C@H](C(=O)NCCOc5no[n+]([O-])c5S(=O)(=O)c5ccccc5)[C@@H](O)[C@H](O)[C@H]4O)cc3o2)cc1 58.03

# Drug metabolism lookup, item COc1ccc(-c2cc(=O)c3c(O)c(OC)c(O[C@@H]4O[C@H](C(=O)N5CCN(CCOc6no[n+]([O-])c6S(=O)(=O)c6ccccc6)CC5)[C@@H](O)[C@H](O)[C@H]4O)cc3o2)cc1 37.96

Recorded Drug metabolism of O=C(OCCCO[N+](=O)[O-])[C@H]1O[C@@H](Oc2cc3oc(-c4ccc(OCc5ccccc5)cc4)cc(=O)c3c(O)c2OCc2ccccc2)[C@H](O)[C@@H](O)[C@@H]1O , please. 3.78

Look at this compound and give its reported Drug metabolism. CC(CNC(=O)[C@H]1O[C@@H](Oc2cc3oc(-c4ccc(OCc5ccccc5)cc4)cc(=O)c3c(O)c2OCc2ccccc2)[C@H](O)[C@@H](O)[C@@H]1O)Oc1no[n+]([O-])c1S(=O)(=O)c1ccccc1 (some centres not stated) 19.33

Requested read-out: Drug metabolism. Entry: COc1ccc(-c2cc(=O)c3c(O)c(OC)c(O[C@@H]4O[C@H](C(=O)NCC(C)Oc5no[n+]([O-])c5S(=O)(=O)c5ccccc5)[C@@H](O)[C@H](O)[C@H]4O)cc3o2)cc1 (some centres not stated) 46.46

Recorded Drug metabolism for COc1ccc(-c2cc(=O)c3c(O)c(OC)c(O[C@@H]4O[C@H](C(=O)OCCO[N+](=O)[O-])[C@@H](O)[C@H](O)[C@H]4O)cc3o2)cc1 , please? 1.97

What value of Drug metabolism has been recorded for this entry: O=C([C@H]1O[C@@H](Oc2cc3oc(-c4ccc(OCc5ccccc5)cc4)cc(=O)c3c(O)c2OCc2ccccc2)[C@H](O)[C@@H](O)[C@@H]1O)N1CCN(CCOc2no[n+]([O-])c2S(=O)(=O)c2ccccc2)CC1 21.87

Returns the measured Drug metabolism for the input compound. Input: O=C(OCCO[N+](=O)[O-])[C@H]1O[C@@H](Oc2cc3oc(-c4ccc(OCc5ccccc5)cc4)cc(=O)c3c(O)c2OCc2ccccc2)[C@H](O)[C@@H](O)[C@@H]1O 4.87

====

Test: Drug metabolism in pH 7.4 phosphate buffer solution assessed as NO release at 10^-5 M after 3 hrs in presence of L-cysteine by Griess assay
Assay type: physicochemical
Conditions: pH 7.4, 3 h, 10 µM
OUTCOME MEASURE: Drug metabolism (µmol/L)
Supply the numeric figure in µmol/L, leaving out any unit text.

# query: Drug metabolism of entry O=C(NCCCOc1no[n+]([O-])c1S(=O)(=O)c1ccccc1)[C@H]1O[C@@H](Oc2cc3oc(-c4ccc(OCc5ccccc5)cc4)cc(=O)c3c(O)c2OCc2ccccc2)[C@H](O)[C@@H](O)[C@@H]1O 20.06

Suppose we examine the compound COc1ccc(-c2cc(=O)c3c(O)c(OC)c(O[C@@H]4O[C@H](C(=O)NCCCOc5no[n+]([O-])c5S(=O)(=O)c5ccccc5)[C@@H](O)[C@H](O)[C@H]4O)cc3o2)cc1 ; what Drug metabolism value has been reported? 30.37

Quick one: Drug metabolism for COc1ccc(-c2cc(=O)c3c(O)c(OC)c(O[C@@H]4O[C@H](C(=O)OCCCO[N+](=O)[O-])[C@@H](O)[C@H](O)[C@H]4O)cc3o2)cc1 ? 1.25

Entry O=C(OCCCO[N+](=O)[O-])[C@H]1O[C@@H](Oc2cc3oc(-c4ccc(OCc5ccccc5)cc4)cc(=O)c3c(O)c2OCc2ccccc2)[C@H](O)[C@@H](O)[C@@H]1O has what Drug metabolism? 3.24

What value of measured Drug metabolism is listed for O=C(NCCOc1no[n+]([O-])c1S(=O)(=O)c1ccccc1)[C@H]1O[C@@H](Oc2cc3oc(-c4ccc(OCc5ccccc5)cc4)cc(=O)c3c(O)c2OCc2ccccc2)[C@H](O)[C@@H](O)[C@@H]1O ? 39.95
